The values you see were collected from patent US7423021B2.

molecular target: thrombin (Homo sapiens); experiment: in-vitro inhibition of the amidase activity of thrombin (fluorogenic substrate Tos-Gly-Pro-Arg-AMC); type: biochemical; set-up: 10 μl of human thrombin solution; conditions: peptide concentration of 1 μM
Square brackets hold non-standard residues; d marks the D form. Cha = N[C@@H](CC1CCCCC1)C(=O)O; Cit = NC(=O)NCCC[C@H](N)C(=O)O
propertyMeasured: inhibition of the amidase activity of the thrombin

Guide cases for inhibition of the amidase activity of the thrombin, answers given:
substance	endpointValue
N-acetyl-L-Tyr-L-Cit-L-Cha-D-Pro-D-Tyr-L-Arg amide (Ac-Y[Cit][Cha][dP][dY]R-NH2; SMILES CC(=O)N[C@@H](Cc1ccc(O)cc1)C(=O)N[C@@H](CCCNC(N)=O)C(=O)N[C@@H](CC1CCCCC1)C(=O)N1CCC[C@@H]1C(=O)N[C@H](Cc1ccc(O)cc1)C(=O)N[C@@H](CCCNC(=N)N)C(N)=O) [Example 6]	55%
N-acetyl-L-Ser-L-Ala-L-Cha-D-Pro-D-Tyr-L-Arg amide (Ac-SA[Cha][dP][dY]R-NH2; SMILES CC(=O)N[C@@H](CO)C(=O)N[C@@H](C)C(=O)N[C@@H](CC1CCCCC1)C(=O)N1CCC[C@@H]1C(=O)N[C@H](Cc1ccc(O)cc1)C(=O)N[C@@H](CCCNC(=N)N)C(N)=O) [Example 10]	47%

Please examine the following record next.
Report inhibition of the amidase activity of the thrombin from thrombin (Homo sapiens) testing of N-acetyl-L-Tyr-D-Pro-L-Cha-D-Pro-D-Tyr-L-Arg amide (Ac-Y[dP][Cha][dP][dY]R-NH2; SMILES CC(=O)N[C@@H](Cc1ccc(O)cc1)C(=O)N1CCC[C@@H]1C(=O)N[C@@H](CC1CCCCC1)C(=O)N1CCC[C@@H]1C(=O)N[C@H](Cc1ccc(O)cc1)C(=O)N[C@@H](CCCNC(=N)N)C(N)=O) [Example 15]
44%
